Test system: total HDAC
Method summary: In vitro total HDAC activity (Fluor-de-Lys, HeLa nuclear extract)
Type: biochemical, human
Condition: total HDAC activity, nuclear extract from HeLa cells, compound at 100 µM
Assay readout: %Inhibition at 100 µM (%)
One number for each entry, in %.

Solved cases (2 shown):
1. Cc1cc(C(=O)c2cc(C(=O)c3cc(C)cc([N+](=O)[O-])c3O)cc([N+](=O)[O-])c2)c(O)c([N+](=O)[O-])c1: 65
2. Cc1cc(C(=O)c2cnc(-c3ccccc3)c(N)c2)c(O)c([N+](=O)[O-])c1: 67

Data request: # get_value(readout= %Inhibition at 100 µM, system= total HDAC) for O=C(c1cc(C(=O)c2cc([N+](=O)[O-])ccc2O)cc([N+](=O)[O-])c1)c1cc([N+](=O)[O-])ccc1O [drawing 37]
Data returned: 73
